target: human TLR7 (Homo sapiens (Human)); assay: TLR7 inhibition reporter assay (HEK-Blue SEAP reporter, gardiquimod stimulation); format: cell-based; details: HEK-Blue cells overexpressing human TLR7, gardiquimod 7.5 μM
Sequence (Q9NYK1 27-1049): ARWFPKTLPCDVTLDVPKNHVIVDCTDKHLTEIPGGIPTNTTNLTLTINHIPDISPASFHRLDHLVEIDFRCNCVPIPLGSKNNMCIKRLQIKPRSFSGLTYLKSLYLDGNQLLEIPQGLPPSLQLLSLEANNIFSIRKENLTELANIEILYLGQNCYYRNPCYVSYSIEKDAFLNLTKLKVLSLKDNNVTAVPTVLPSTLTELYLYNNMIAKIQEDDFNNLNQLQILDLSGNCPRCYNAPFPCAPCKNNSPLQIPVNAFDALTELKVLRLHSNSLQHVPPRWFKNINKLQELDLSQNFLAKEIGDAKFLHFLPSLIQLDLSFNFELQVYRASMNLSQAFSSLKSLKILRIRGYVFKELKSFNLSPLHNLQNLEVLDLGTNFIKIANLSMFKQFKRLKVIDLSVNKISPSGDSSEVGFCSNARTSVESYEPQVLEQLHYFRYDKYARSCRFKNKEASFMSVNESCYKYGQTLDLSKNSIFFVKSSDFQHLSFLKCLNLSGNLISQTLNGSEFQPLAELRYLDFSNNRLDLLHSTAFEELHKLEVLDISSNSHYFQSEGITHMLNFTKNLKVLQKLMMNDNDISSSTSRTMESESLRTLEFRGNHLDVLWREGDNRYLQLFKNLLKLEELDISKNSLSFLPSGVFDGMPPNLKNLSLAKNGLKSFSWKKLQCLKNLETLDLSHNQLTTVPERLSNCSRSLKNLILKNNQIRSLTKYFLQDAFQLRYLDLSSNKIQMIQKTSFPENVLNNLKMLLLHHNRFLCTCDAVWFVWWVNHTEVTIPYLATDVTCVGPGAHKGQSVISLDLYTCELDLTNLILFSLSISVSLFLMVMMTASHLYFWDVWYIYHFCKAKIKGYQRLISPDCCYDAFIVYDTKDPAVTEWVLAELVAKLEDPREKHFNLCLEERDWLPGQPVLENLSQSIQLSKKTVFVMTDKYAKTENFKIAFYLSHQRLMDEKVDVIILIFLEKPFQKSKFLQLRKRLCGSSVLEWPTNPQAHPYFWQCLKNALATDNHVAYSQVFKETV
QUANTITY_KIND: IC50 (nM)

Use the examples below as a reference point.
Cc1cc(-c2[nH]c3ccc(C(C)(C)C(=O)NCC4(O)CN5CCC4CC5)cc3c2C(C)C)ccn1 (centres unmarked) [Example 174] : 54
CNCCN1CC2CN(C(=O)c3ccc4[nH]c(-c5ccc(OC)c(OC)c5)c(C(C)C)c4c3)CC2C1 (centres unmarked) [Example 12] : 274

1: Cc1cc(-c2[nH]c3ccc(C(C)(C)C(=O)N4CCC(N)CC4)cc3c2C(C)C)ccn1 [Example 153]
2: CCc1c(-c2ccc(OC)c(OC)c2)[nH]c2ccc(C(=O)N3CCN(c4ccccn4)CC3)cc12 [Example 59]
3: Cc1cc(-c2[nH]c3ccc(C(C)(C)C(=O)N4CC5CN(C)CC5C4)cc3c2C(C)C)ccn1 (centres unmarked) [Example 149]
Could you please order the items by IC50, going from the lowest number to the highest? Please, when replying, give the labels in the order that was requested.
3, 1, 2

FYI, the data here is from patent US11420973B2.
